- experimentNotes: Pharmacokinetic study in beagles (Test Example 5), intravenous drip and intragastric administration
- Format: in vivo
- conditionSummary: beagle, dog, plasma, po, Tolvaptan 10 mg/kg p.o., molecule detected Tolvaptan, mean value
recordedEndpoint: Tmax (h)
Numbers only, in h.

I have this compound here, Cc1ccccc1C(=O)Nc1ccc(C(=O)N2CCCC(O)c3cc(Cl)ccc32)c(C)c1 (stereo not shown) [Tolvaptan, reference compound] , and I need its recorded Tmax.
1.17

----------
- experimentNotes: Pharmacokinetic study in dogs (Test Example 1), intragastric administration
- Format: in vivo
- conditionSummary: beagle, dog, plasma; beagles; Tolvaptan administered PO 1 mg/kg; molecule detected Tolvaptan; mean value
recordedEndpoint: Tmax (h)
One number for each entry, in h.

Please look up its Tmax: Cc1ccccc1C(=O)Nc1ccc(C(=O)N2CCCC(O)c3cc(Cl)ccc32)c(C)c1 (stereo not shown) [Tolvaptan, reference compound]
1.5
